These entries and their values trace back to the SangsterLogP compilation.

PROPERTY LABEL: logP

Oc1ccc(C(c2ccc(O)cc2)c2cccnc2)cc1 | 3.13
OCc1ccccc1C(c1ccc(O)cc1)c1ccc(O)cc1 | 3.27
Cc1cnc(C(c2ccc(O)cc2)c2ccc(O)cc2)s1 | 3.34
